Assay: inhibitors of MT1-MMP promoter transcription, cell-based, luciferase reporter, luminescence (AID 618);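 note: actives suppress MT1-MMP promoter-driven transcription so potencies describe inhibitors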
Details: MT1-MMP promoter luciferase reporter cells
Among all 87,000 compounds or so, about 540 (0.62%) were called active. The sample as a whole holds a higher share of actives than the screen did. Measured potencies and affinities stand elsewhere.
readoutType: outcome

INSERT INTO assay_data (molecule, readouttype, measured) VALUES
  ('O=C(C1CCCN(Cc2ccccc2Br)C1)N1CCCCC1 (stereo not given)', 'outcome', 'inactive'),
  ('c1cc(-c2nc3cc(Cc4ccc5oc(-c6ccncc6)nc5c4)ccc3o2)ccn1', 'outcome', 'inactive'),
  ('COc1ccccc1N1CCN(c2ncnc3c2oc2ccccc23)CC1', 'outcome', 'inactive'),
  ('COc1ccc(C(NC(N)=O)c2ccccc2)cc1 (stereo not given)', 'outcome', 'inactive'),
  ('O=C(CCCC(=O)N(CC(=O)NC1CCCC1)Cc1ccccc1)Nc1ccccn1', 'outcome', 'inactive'),
  ('Cc1ccc(-c2nn(CC(=O)NCc3cc(-c4nn(C)c(=O)c5ccccc45)ccc3C)c(=O)c3ccccc23)cc1', 'outcome', 'inactive'),
  ('COc1ccccc1N1CCN(c2nc(C)nc3c2oc2ccccc23)CC1', 'outcome', 'active'),
  ('Nc1ccnc(C(F)(F)F)c1C(=O)c1ccccc1', 'outcome', 'inactive'),
  ('CCc1ccc2oc(-c3ccc(N)cc3)nc2c1', 'outcome', 'active'),
  ('CCCOc1ccc2ccccc2c1/C=N/n1c(C)nnc1-n1nc(C)cc1C', 'outcome', 'active'),
  ('CC(=O)c1ccc(NS(=O)(=O)c2ccc(CC(C)C)cc2)cc1', 'outcome', 'inactive'),
  ('Cc1cc(C)n(-c2nnc(C)n2/N=C/c2cc(Br)ccc2OCc2ccccc2)n1', 'outcome', 'inactive'),
  ('COCc1nnc(NC(=O)c2cc(Cl)ccc2OC)s1', 'outcome', 'inactive'),
  ('COc1ccccc1N1CCN(C(=O)CN(c2cc(C)cc(C)c2)S(C)(=O)=O)CC1', 'outcome', 'inactive'),
  ('CC(C)(/C=N/O)/[N+]([O-])=C/c1ccco1', 'outcome', 'inactive');

* * *

Assay: inhibitors of MT1-MMP promoter transcription, cell-based, luciferase reporter, luminescence (AID 618)
Settings: MT1-MMP promoter luciferase reporter cells
Hit rate of the full screen: of about 87,000 compounds, about 540 (0.62%) were called active. The rule behind the calls is not given here. Many of the other results were omitted from the sample, so actives are more common in it than they were. Measured potencies and affinities stand elsewhere.
Outcome codes: yes (1) = active, no (0) = inactive

INSERT INTO assay_data (compound, classlabel) VALUES
  ('COc1ccc2oc(=O)c(-c3nc(C)cs3)cc2c1', 'no (0)'),
  ('COCCn1c(C)cc(C(=O)COC(=O)c2n[nH]c3ccccc23)c1C', 'yes (1)'),
  ('COCCn1c(C)cc(C(=O)COC(=O)c2ccc(-n3nc(C)cc3C)cc2)c1C', 'no (0)'),
  ('Cc1ccc(C(=O)N2c3ccccc3N(Cc3ccccc3)C(=O)C2(C)C)cc1', 'no (0)'),
  ('CCN(CC)c1ccc2cc(-c3nc4ccccc4n3C)c(=O)oc2c1', 'no (0)'),
  ('Cc1cc(C)cc(OCc2nc3ncc(Br)cc3[nH]2)c1', 'no (0)'),
  ('CC(=O)N(/N=C1\Sc2ccccc2C1=O)c1cccc(C)c1', 'no (0)'),
  ('COc1ccc2c(=O)c(-c3nc(C)cs3)coc2c1', 'yes (1)'),
  ('CCc1ccc2[nH]c(=O)c(C(c3nnnn3Cc3ccccc3)N3CCOCC3)cc2c1 (stereo not given)', 'no (0)'),
  ('CC(C)Cn1c(N)c(S(=O)(=O)c2cccs2)c2nc3ccccc3nc21', 'no (0)'),
  ('CC(=O)N1c2ccccc2N(Cc2ccc(C)cc2C)C(=O)C1(C)C', 'yes (1)'),
  ('COCC(C)n1c(C)cc(C(=O)COC(=O)c2n[nH]c3ccccc23)c1C (stereo not given)', 'no (0)'),
  ('NC(=O)c1cc(Cl)cn(-c2ccccc2)c1=O', 'no (0)'),
  ('c1coc(CN2CN=C(Nc3nc4ccccc4s3)NC2)c1', 'no (0)'),
  ('O=C(CC(=O)c1cc(Cl)ccc1O)c1ccccc1', 'no (0)');

* * *

Assay: inhibitors of MT1-MMP promoter transcription, cell-based, luciferase reporter, luminescence (AID 618);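 note: actives suppress MT1-MMP promoter-driven transcription so potencies describe inhibitors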
Conditions: MT1-MMP promoter luciferase reporter cells
Hit rate of the full screen: of about 87,000 compounds, about 540 (0.62%) were called active. The rule behind the calls is not given here. The sample as a whole holds a higher share of actives than the screen did. Results with a measured potency or affinity are listed apart.
Outcome codes: label 1 = active, label 0 = inactive

INSERT INTO results (compound, classlabel) VALUES
  ('Cc1csc2nc(CSc3nc4ccccc4o3)cn12', 'label 0'),
  ('Cc1ccc(S(=O)(=O)N2C(=S)SCC2(C)C)cc1', 'label 0'),
  ('CCn1ncc(Br)c1C(=O)Nc1ccc(F)cc1F', 'label 0'),
  ('CC1=CC(C)(C)N(S(=O)(=O)c2ccc(C)cc2)c2ccccc21', 'label 1'),
  ('CC1CCCCC1NC(=O)C1CCN(S(=O)(=O)N2CCC3(CC2)OCCO3)CC1 (centres undefined)', 'label 0'),
  ('CC1=CC(C)(C)N(S(=O)(=O)c2ccc(C)cc2)c2cc(C)ccc21', 'label 1'),
  ('Cc1ccc(S(=O)(=O)N2CC3(C)CN(S(=O)(=O)c4ccc(C)cc4)CC(C)(C2)C3)cc1', 'label 0'),
  ('CN(C)C(=O)CSc1nnc2sc3ccccc3n12', 'label 0'),
  ('O=C(CSc1nnc(Cc2cccs2)n1Cc1ccco1)Nc1ccc(Cl)cc1Cl', 'label 0');

* * *

Test: inhibitors of MT1-MMP promoter transcription, cell-based, luciferase reporter, luminescence (AID 618);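 note: actives suppress MT1-MMP promoter-driven transcription so potencies describe inhibitors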
Details: MT1-MMP promoter luciferase reporter cells
The whole screen tested about 87,000 compounds, of which about 540 (0.62%) were called active. The rule behind the calls is not given here. Only a selection was taken, and actives are over-represented in it overall. Measured potencies and affinities stand elsewhere.
Outcome codes: 1 (active), -1 (inactive)

INSERT INTO results (molecule, classlabel) VALUES
  ('Cc1sc2ncnc(Oc3ccc(-n4ccnc4)cc3)c2c1C', -1),
  ('COc1ccc(C2C(=O)c3ccccc3C2=O)c(OC)c1', -1),
  ('CCC(=O)Nc1ccc(NC(=O)c2ccccn2)cn1', -1),
  ('CCOC(=O)N1CCN(c2nc(-c3ccc(OC)cc3)no2)CC1', -1),
  ('Cc1nc2cc(NC(=O)N3c4ccccc4CC3C)ccc2n1C (stereo not given)', 1),
  ('O=C(Nc1ccc(NC(=O)C2CCCCC2)nc1)c1ccco1', -1),
  ('COc1cccc(-c2cc(C(=O)Nn3cnnc3)c3ccccc3n2)c1', -1),
  ('O=S(=O)(c1ccc(N2CCC(c3ccc(Cl)cc3)=N2)cc1)N(CCO)CCO', -1),
  ('COc1ccc(NC(=O)N2c3ccccc3CC2C)cc1OC (stereo not given)', -1),
  ('O=C(c1cc(-c2ccc(Cl)cc2)on1)N1CCOCC1', -1);

* * *

Experiment: inhibitors of MT1-MMP promoter transcription, cell-based, luciferase reporter, luminescence (AID 618);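 note: actives suppress MT1-MMP promoter-driven transcription so potencies describe inhibitors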
Conditions: MT1-MMP promoter luciferase reporter cells
Out of some 87,000 compounds screened, about 540 (0.62%) were called active. How the calls were made is not given here. For the sample, actives were picked, then their nearest neighbours and some compounds at random. Results with a measured potency or affinity are listed apart.
Outcome codes: active, inactive

INSERT INTO measurements (compound, classlabel) VALUES
  ('COc1ccccc1NC(=O)CSc1nnc(-c2ccccc2)o1', 'inactive'),
  ('COC(=O)c1ccccc1NC(=O)CSc1nnc(-c2ccc(C)cc2)o1', 'inactive'),
  ('O=C(Cc1ccccc1)Nc1nc2ccccc2[nH]1', 'inactive'),
  ('C=CCOc1ccc2nc(NC(=O)OC)[nH]c2c1', 'active'),
  ('CCN1CCN(/C=N/c2nc(C)cs2)CC1', 'inactive'),
  ('N#CCc1nc2n(n1)Cc1ccccc1-2', 'inactive'),
  ('O=C(COc1ccccc1)Nc1nc2ccccc2[nH]1', 'inactive'),
  ('Fc1ccc(-c2nc3n(n2)Cc2ccccc2-3)cc1', 'active'),
  ('COC(=O)c1noc(-c2ccc(C)cc2)n1', 'inactive'),
  ('CN1CCN(/C=N/c2sc3c(c2C#N)CCCCC3)CC1', 'inactive'),
  ('Cc1ccc(-c2noc(-c3cccs3)n2)cc1', 'inactive'),
  ('Cc1c(NC(=O)c2cnn3c2NC(c2ccc(Br)cc2)CC3C(F)(F)F)c(=O)n(-c2ccccc2)n1C (stereo not given)', 'inactive'),
  ('O=S(=O)(c1cccc(-c2nc3n(n2)Cc2ccccc2-3)c1)N1CCCC1', 'inactive'),
  ('CCOc1ccc(C2c3c(oc4ccccc4c3=O)C(=O)N2CCCN2CCOCC2)cc1OCC (stereo not given)', 'inactive'),
  ('CCN1CCN(/C=N/c2nc3c(s2)CCCC3)CC1', 'active');
